# target.of.assay: UniProt:Q14289
# Sequence (Q14289 whole entry): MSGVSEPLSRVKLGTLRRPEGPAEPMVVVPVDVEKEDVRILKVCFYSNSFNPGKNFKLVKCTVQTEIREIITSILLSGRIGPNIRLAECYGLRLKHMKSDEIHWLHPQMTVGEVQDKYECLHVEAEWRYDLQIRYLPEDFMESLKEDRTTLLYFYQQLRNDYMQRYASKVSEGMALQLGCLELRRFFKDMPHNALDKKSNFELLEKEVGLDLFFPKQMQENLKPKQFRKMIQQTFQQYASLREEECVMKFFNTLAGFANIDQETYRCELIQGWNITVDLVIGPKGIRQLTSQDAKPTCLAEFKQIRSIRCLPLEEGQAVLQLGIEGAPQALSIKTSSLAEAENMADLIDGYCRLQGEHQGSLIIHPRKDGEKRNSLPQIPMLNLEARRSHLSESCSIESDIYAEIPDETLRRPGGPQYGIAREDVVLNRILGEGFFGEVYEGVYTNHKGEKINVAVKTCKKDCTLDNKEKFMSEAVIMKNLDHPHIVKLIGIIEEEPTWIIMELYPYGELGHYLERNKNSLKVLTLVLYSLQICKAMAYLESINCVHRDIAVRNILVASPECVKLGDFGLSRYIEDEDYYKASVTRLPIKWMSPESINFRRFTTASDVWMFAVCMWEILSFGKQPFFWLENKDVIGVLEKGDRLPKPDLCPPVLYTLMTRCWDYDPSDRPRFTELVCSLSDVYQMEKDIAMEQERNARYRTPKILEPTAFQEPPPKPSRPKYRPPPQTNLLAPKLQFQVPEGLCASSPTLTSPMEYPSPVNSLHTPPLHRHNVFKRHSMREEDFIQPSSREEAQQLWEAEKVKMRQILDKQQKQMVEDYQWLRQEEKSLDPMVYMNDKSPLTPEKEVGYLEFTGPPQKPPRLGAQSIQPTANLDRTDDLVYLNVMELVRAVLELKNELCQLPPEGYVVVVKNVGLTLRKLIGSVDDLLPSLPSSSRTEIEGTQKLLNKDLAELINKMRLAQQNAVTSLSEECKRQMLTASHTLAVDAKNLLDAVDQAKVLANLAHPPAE
# Assay type: cell-based
# run.parameters: PTK2B, accession Q14289-1; experiment wp045; direction of change down
value.type: logFC PTK2B

>  <compound>
Cc1ccc(NC(=O)c2cccc(C(F)(F)F)c2)cc1N1Cc2cnc(Nc3ccc(N4CCN(Cc5cn(CCCCCOc6cccc7c6C(=O)N(C6CCC(=O)NC6=O)C7=O)nn5)CC4)nc3)nc2N(C)C1=O (stereo not shown)

>  <value.type>
logFC PTK2B

>  <value.observed>
−2.774

$$$$
>  <compound>
Cc1ccc(NC(=O)c2cccc(C(F)(F)F)c2)cc1N1Cc2cnc(Nc3ccc(N4CCN(CCCCCCOc5cccc6c5C(=O)N(C5CCC(=O)NC5=O)C6=O)CC4)nc3)nc2N(C)C1=O (stereo not shown)

>  <value.type>
logFC PTK2B

>  <value.observed>
−1.961

$$$$
>  <compound>
CS(=O)(=O)Nc1cccc(-c2csc3cnc(Nc4ccc(N5CCN(CCCCCOc6cccc7c6C(=O)N(C6CCC(=O)NC6=O)C7=O)CC5)cc4)nc23)c1 (stereo not shown)

>  <value.type>
logFC PTK2B

>  <value.observed>
−1.425

$$$$
>  <compound>
CS(=O)(=O)Nc1cccc(-c2csc3cnc(Nc4ccc(N5CCN(CCOCCOCCOc6cccc7c6C(=O)N(C6CCC(=O)NC6=O)C7=O)CC5)cc4)nc23)c1 (stereo not shown)

>  <value.type>
logFC PTK2B

>  <value.observed>
−1.517

$$$$

---

# target.of.assay: protein kinases (human kinome) (Homo sapiens, UniProt P53671)
# Sequence (P53671 whole entry): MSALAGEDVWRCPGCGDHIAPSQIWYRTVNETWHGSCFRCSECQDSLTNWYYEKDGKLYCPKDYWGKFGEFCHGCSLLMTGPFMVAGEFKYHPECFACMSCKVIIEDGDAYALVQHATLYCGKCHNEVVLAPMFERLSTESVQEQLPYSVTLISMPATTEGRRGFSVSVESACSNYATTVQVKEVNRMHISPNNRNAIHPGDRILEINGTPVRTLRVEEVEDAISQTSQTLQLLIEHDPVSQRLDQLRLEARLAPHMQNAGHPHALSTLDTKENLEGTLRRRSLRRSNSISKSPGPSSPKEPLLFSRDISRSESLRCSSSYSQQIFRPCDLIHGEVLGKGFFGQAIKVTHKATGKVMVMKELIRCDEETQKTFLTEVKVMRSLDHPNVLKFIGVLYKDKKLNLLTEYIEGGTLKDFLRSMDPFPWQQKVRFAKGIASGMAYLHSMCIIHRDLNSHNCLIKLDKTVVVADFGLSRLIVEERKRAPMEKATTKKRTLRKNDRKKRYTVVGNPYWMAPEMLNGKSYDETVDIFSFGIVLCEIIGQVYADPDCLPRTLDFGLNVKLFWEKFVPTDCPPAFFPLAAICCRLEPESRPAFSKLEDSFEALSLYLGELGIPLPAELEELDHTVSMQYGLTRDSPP
# Type: cell-based
# run.parameters: LIMK2 P53671; experiment wp045
Entries and their logFC of LIMK2 values follow.
value.type: logFC of LIMK2

>  <compound>
CS(=O)(=O)Nc1cccc(-c2csc3cnc(Nc4ccc(N5CCN(CCCCCOc6cccc7c6C(=O)N(C6CCC(=O)NC6=O)C7=O)CC5)cc4)nc23)c1 (stereo not shown)

>  <value.observed>
−0.437

$$$$
>  <compound>
CS(=O)(=O)Nc1cccc(-c2csc3cnc(Nc4ccc(N5CCN(CCOCCOCCOc6cccc7c6C(=O)N(C6CCC(=O)NC6=O)C7=O)CC5)cc4)nc23)c1 (stereo not shown)

>  <value.observed>
−0.7182

$$$$
>  <compound>
Cc1ccc(NC(=O)c2cccc(C(F)(F)F)c2)cc1N1Cc2cnc(Nc3ccc(N4CCN(CCCCCCOc5cccc6c5C(=O)N(C5CCC(=O)NC5=O)C6=O)CC4)nc3)nc2N(C)C1=O (stereo not shown)

>  <value.observed>
−1.367

$$$$
>  <compound>
Cc1ccc(NC(=O)c2cccc(C(F)(F)F)c2)cc1N1Cc2cnc(Nc3ccc(N4CCN(Cc5cn(CCCCCOc6cccc7c6C(=O)N(C6CCC(=O)NC6=O)C7=O)nn5)CC4)nc3)nc2N(C)C1=O (stereo not shown)

>  <value.observed>
−1.648

$$$$

---

# target.of.assay: protein kinases (human kinome) (Homo sapiens)
# Assay type: cell-based
# run.parameters: Experiment wp016; down
value.type: logFC of CDK6 (Q00534)

>  <compound>
CC(C)S(=O)(=O)c1ccccc1Nc1nc(Nc2ccc(N3CCN(CCOCCOCCNC(=O)CNc4ccc5c(c4)C(=O)N(C4CCC(=O)NC4=O)C5=O)CC3)cc2)ncc1Cl (centres unmarked)

>  <value.observed>
−0.6531

$$$$
>  <compound>
CC(C)S(=O)(=O)c1ccccc1Nc1nc(Nc2ccc(N3CCN(CCOCCOCCNC(=O)CNc4cccc5c4C(=O)N(C4CCC(=O)NC4=O)C5=O)CC3)cc2)ncc1Cl (centres unmarked)

>  <value.observed>
−0.5831

$$$$
>  <compound>
CC(C)S(=O)(=O)c1ccccc1Nc1nc(Nc2ccc(N3CCN(CCOCCNC(=O)CNc4cccc5c4C(=O)N(C4CCC(=O)NC4=O)C5=O)CC3)cc2)ncc1Cl (centres unmarked)

>  <value.observed>
−0.8832

$$$$
>  <compound>
CC(C)S(=O)(=O)c1ccccc1Nc1nc(Nc2ccc(N3CCN(CCOCCNC(=O)CNc4ccc5c(c4)C(=O)N(C4CCC(=O)NC4=O)C5=O)CC3)cc2)ncc1Cl (centres unmarked)

>  <value.observed>
−0.8585

$$$$
>  <compound>
CC(C)S(=O)(=O)c1ccccc1Nc1nc(Nc2ccc(N3CCN(CCOCCOCCOCCNC(=O)CNc4ccc5c(c4)C(=O)N(C4CCC(=O)NC4=O)C5=O)CC3)cc2)ncc1Cl (centres unmarked)

>  <value.observed>
−0.3396

$$$$

---

Entries and their logFC of LIMK2 values follow.
# target.of.assay: UniProtKB P53671
# Assay type: cell-based
# run.parameters: LIMK2 P53671; experiment wp016

>  <molecule>
CC(C)S(=O)(=O)c1ccccc1Nc1nc(Nc2ccc(N3CCN(CCOCCOCCNC(=O)CNc4ccc5c(c4)C(=O)N(C4CCC(=O)NC4=O)C5=O)CC3)cc2)ncc1Cl (stereo not drawn)

>  <logFC of LIMK2>
−0.9573

$$$$
>  <molecule>
CC(C)S(=O)(=O)c1ccccc1Nc1nc(Nc2ccc(N3CCN(CCOCCNC(=O)CNc4cccc5c4C(=O)N(C4CCC(=O)NC4=O)C5=O)CC3)cc2)ncc1Cl (stereo not drawn)

>  <logFC of LIMK2>
−1.061

$$$$
>  <molecule>
CC(C)S(=O)(=O)c1ccccc1Nc1nc(Nc2ccc(N3CCN(CCOCCOCCOCCNC(=O)CNc4cccc5c4C(=O)N(C4CCC(=O)NC4=O)C5=O)CC3)cc2)ncc1Cl (stereo not drawn)

>  <logFC of LIMK2>
−0.378

$$$$
>  <molecule>
CC(C)S(=O)(=O)c1ccccc1Nc1nc(Nc2ccc(N3CCN(CCOCCOCCOCCNC(=O)CNc4ccc5c(c4)C(=O)N(C4CCC(=O)NC4=O)C5=O)CC3)cc2)ncc1Cl (stereo not drawn)

>  <logFC of LIMK2>
−0.444

$$$$
>  <molecule>
CC(C)S(=O)(=O)c1ccccc1Nc1nc(Nc2ccc(N3CCN(CCOCCOCCNC(=O)CNc4cccc5c4C(=O)N(C4CCC(=O)NC4=O)C5=O)CC3)cc2)ncc1Cl (stereo not drawn)

>  <logFC of LIMK2>
−0.7395

$$$$
>  <molecule>
CC(C)S(=O)(=O)c1ccccc1Nc1nc(Nc2ccc(N3CCN(CCOCCNC(=O)CNc4ccc5c(c4)C(=O)N(C4CCC(=O)NC4=O)C5=O)CC3)cc2)ncc1Cl (stereo not drawn)

>  <logFC of LIMK2>
−1.01

$$$$

---

# target.of.assay: protein kinases (human kinome) (Homo sapiens, UniProt P30291)
# Sequence (P30291 whole entry): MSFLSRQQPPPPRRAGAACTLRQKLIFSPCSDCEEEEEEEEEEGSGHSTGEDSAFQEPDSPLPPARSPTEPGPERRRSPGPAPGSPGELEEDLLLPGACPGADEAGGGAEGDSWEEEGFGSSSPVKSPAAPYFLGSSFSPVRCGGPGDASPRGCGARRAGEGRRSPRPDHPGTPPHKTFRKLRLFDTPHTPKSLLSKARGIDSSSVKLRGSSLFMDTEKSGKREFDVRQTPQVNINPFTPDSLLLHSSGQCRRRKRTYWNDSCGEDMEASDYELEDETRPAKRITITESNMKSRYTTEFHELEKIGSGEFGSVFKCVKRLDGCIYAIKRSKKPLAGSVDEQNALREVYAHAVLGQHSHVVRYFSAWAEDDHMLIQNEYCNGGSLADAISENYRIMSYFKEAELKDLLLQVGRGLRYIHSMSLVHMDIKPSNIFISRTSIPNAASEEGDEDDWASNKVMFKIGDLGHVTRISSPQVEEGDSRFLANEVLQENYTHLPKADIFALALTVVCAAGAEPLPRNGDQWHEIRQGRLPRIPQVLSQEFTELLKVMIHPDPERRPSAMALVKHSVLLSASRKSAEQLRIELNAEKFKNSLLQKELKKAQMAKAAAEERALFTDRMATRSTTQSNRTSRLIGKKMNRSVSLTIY
# Type: cell-based
# run.parameters: experiment wp076
Entries and their logFC WEE1 (P30291-1) values follow.
value.type: logFC WEE1 (P30291-1)

>  <molecule>
CCc1cnn2c(N(Cc3ccc(N)nc3)C(=O)CCOCCOCCOCCNC(=O)CNc3cccc4c3C(=O)N(C3CCC(=O)NC3=O)C4=O)cc(N3CCCC[C@H]3CCO)nc12 (stereo partly shown)

>  <target.of.assay>
protein kinases (human kinome) (Homo sapiens, UniProt P30291)

>  <value.observed>
−0.7664

$$$$
>  <molecule>
O=C1CCC(N2C(=O)c3cccc(NCCCCCCCCN4CCC(NC(=O)c5[nH]ncc5NC(=O)c5c(Cl)cccc5Cl)CC4)c3C2=O)C(=O)N1 (stereo not shown)

>  <target.of.assay>
protein kinases (human kinome) (Homo sapiens, UniProt P30291)

>  <value.observed>
−0.9048

$$$$
>  <molecule>
CNC(=O)c1ccccc1Nc1cc(Nc2ccc(N3CCN(CCOCCOCCNC(=O)CNc4cccc5c4C(=O)N(C4CCC(=O)NC4=O)C5=O)CC3)cc2OC)ncc1C(F)(F)F (stereo not shown)

>  <target.of.assay>
protein kinases (human kinome) (Homo sapiens, UniProt P30291)

>  <value.observed>
−0.9694

$$$$
>  <molecule>
CNC(=O)c1ccccc1Nc1cc(Nc2ccc(N3CCN(CCCCCCCCNc4cccc5c4C(=O)N(C4CCC(=O)NC4=O)C5=O)CC3)cc2OC)ncc1C(F)(F)F (stereo not shown)

>  <target.of.assay>
protein kinases (human kinome) (Homo sapiens, UniProt P30291)

>  <value.observed>
−0.4799

$$$$

---

# target.of.assay: UniProt P11802
# Sequence (P11802 whole entry): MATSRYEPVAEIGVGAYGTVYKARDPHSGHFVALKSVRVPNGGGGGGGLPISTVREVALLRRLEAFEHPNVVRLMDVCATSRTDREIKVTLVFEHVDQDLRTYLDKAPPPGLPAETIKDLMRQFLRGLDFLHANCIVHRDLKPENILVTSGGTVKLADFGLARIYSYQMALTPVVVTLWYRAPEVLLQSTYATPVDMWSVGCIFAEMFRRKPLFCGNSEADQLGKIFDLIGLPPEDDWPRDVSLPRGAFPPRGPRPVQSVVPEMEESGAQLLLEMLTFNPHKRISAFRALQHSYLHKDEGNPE
# Assay type: cell-based
# run.parameters: experiment wp016
# note: exactly -1 is not below, so it is not met; use met for logFC CDK4 (P11802) strictly under it

>  <molecule>
CC(C)S(=O)(=O)c1ccccc1Nc1nc(Nc2ccc(N3CCN(CCOCCNC(=O)CNc4cccc5c4C(=O)N(C4CCC(=O)NC4=O)C5=O)CC3)cc2)ncc1Cl (centres unmarked)

>  <category>
met

$$$$
>  <molecule>
CC(C)S(=O)(=O)c1ccccc1Nc1nc(Nc2ccc(N3CCN(CCOCCOCCNC(=O)CNc4ccc5c(c4)C(=O)N(C4CCC(=O)NC4=O)C5=O)CC3)cc2)ncc1Cl (centres unmarked)

>  <category>
not met

$$$$
>  <molecule>
CC(C)S(=O)(=O)c1ccccc1Nc1nc(Nc2ccc(N3CCN(CCOCCOCCOCCNC(=O)CNc4ccc5c(c4)C(=O)N(C4CCC(=O)NC4=O)C5=O)CC3)cc2)ncc1Cl (centres unmarked)

>  <category>
not met

$$$$
>  <molecule>
CC(C)S(=O)(=O)c1ccccc1Nc1nc(Nc2ccc(N3CCN(CCOCCNC(=O)CNc4ccc5c(c4)C(=O)N(C4CCC(=O)NC4=O)C5=O)CC3)cc2)ncc1Cl (centres unmarked)

>  <category>
met

$$$$
>  <molecule>
CC(C)S(=O)(=O)c1ccccc1Nc1nc(Nc2ccc(N3CCN(CCOCCOCCNC(=O)CNc4cccc5c4C(=O)N(C4CCC(=O)NC4=O)C5=O)CC3)cc2)ncc1Cl (centres unmarked)

>  <category>
not met

$$$$
